tested on: MS2 coat protein; assay: apparent KD of MS2 coat protein; designed switch direction (-1 OFF switch, 1 ON switch): 1; higher = weaker reporter binding; settings: Eterna round: R95; input ligand: none
Binary classification by apparent KD of MS2 coat protein, with 0.1 µM as an inclusive lower bound for fulfilled; all other cases are not fulfilled.

CGUCCGGCCUGUGCUGGCCGGUGGCGUGUACAUGAGGAUCACCCAUGUUCUUGUGCUGGCUGUUUGCUCGUCUUGUG [salish99_mir208a_r3_025] (puzzle: Sensor for hsa-mir-208a) | not fulfilled
GGUCCAGCCUGAGCUGGACAAAAGCAUGUACAUGAGGAUCACCCAUGUUCAUGUACAAGCUUUUUGCUCGUCUUACU [salish99_208a_r3_085] (puzzle: Sensor for hsa-mir-208a) | fulfilled
AGUCCAGCAUAAGCUGGACAAAAGCAUGUACAUGAGGAUCACCCAUGUUCAUGUACAAGCUUUUUGCUCGUCAAAAG [Mat - hsa-mir-208a - Mod of JL - 71] (puzzle: Sensor for hsa-mir-208a) | fulfilled
AGAAGGAGAGCGCAGGAUAUCGAUAAUGACACAUGAGGAUCACCCAUGUUUGGUAUUAGAAGGAACGAGAAGGGUGAAAGGAGAA [knee_arm_01] (puzzle: Same State 2) | fulfilled
GAGAAUCUAUCUCAGGAUAUCAUGUCAAAGACAUGAGGAUCACCCAUGUACCAGGAAACUGGUUAUGAGAAGGGAGAUAGAUUCA [Mat - Same State 2 - Mod - D35] (puzzle: Same State 2) | fulfilled

Dear colleague, could you confirm whether AAAAGACAUGAGGAUCACCCAUGUAUGAAAAGUACAGGAUAUCACGAGCUAAGAAGCGAGUGAGAAGGGUGAAAAU [Sogedi] (puzzle: Same State 1) has apparent KD of MS2 coat protein at or above 0.1 µM?
fulfilled

* * *

Record form. Attribute: apparent KD of MS2 coat protein. Fill in for each entry.
tested on: MS2 coat protein; assay: apparent KD of MS2 coat protein; higher = weaker reporter binding; conditions: Eterna round: R107; input ligand: theophylline 20 uM
One number for each entry, in nM.

GGACUAACCAGAAGGAGCGGCGCGCAGAAACUGCUAAUUCCUCCGCACGAGGAUCACCCGUGUCAGGUAGGUCGCUGGUUAGUCG [ArgBX 28] | 12.4
UGCUAGUGAUCGGCCGCCACUGGCACCUUGAGGAUCCUGCUAAAGUACAUGAGGAUCACCCAUGUCAGGACCGGGAUCAUCAGUG [Onveusonri] | 11.8
ACAUGAAGAUUAAUCGUGGGCAUACUCGAUACCAGUAUUUUAACCUACCCUUGGCAGCGACAUGAGGAUCACCCAUGUGAGAUGA [XTheo A #8] | 23.5

Look up apparent KD of MS2 coat protein for the entries below, preserving their order.
1. UCCUCAUGGCAUGAUACCAGACCUAACAUGAGGAUCACCCAUGUAUCAGGCAAUUGUUACGUCCCUUGGCAGCAUGUAUGCCGAC [Theo B SS t4]
2. CCUUAAUAUAGAAGGAGCGCGCUAACAUGAGGAUCACCCAUGUAAAGGGUUUUUGGCUUAGCGCAGGUAGGUCGCUAUAAGAACC [Arg B Ex t1]

[91.1, 162]

Supply reported apparent KD of MS2 coat protein belonging to this sequence: UUAGAUAUGACGGAUACCAGCGUGUUGUAGAACAUGAGGAUCACCCAUGUAGUGAUCGUGCGCCCUUGGCAGCUGGUAUGUUUGG [7.V]
491

* * *

tested on: K4 kissing-loop RNA reporter; experiment: apparent KD of K4 kissing-loop reporter; higher = weaker reporter binding; details: Eterna round: R107; input ligand: tryptophan 2.4 mM;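 also: bound reporter read as fluorescence of individual clusters on recovered sequencing chips by microscopy, with normalized cluster intensities fitted with a binding model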
quantity measured: apparent KD of K4 kissing-loop reporter (nM)
One number for each entry, in nM.

Look up apparent KD of K4 kissing-loop reporter for the entries below, preserving their order.
1. GUAUCGCUAGGAGGAUAUUCCGUUUUUCAUAGCAAUGGCUAUGCGGAGUGAUGUUCCGAUUUACCGGAAGAAGGCCUAGUGAUAC [FMN B 24]
2. AGGUUUUGAUUAGGAUAUGCACUGACGACGAGAAUAUAGUGAUGUUAUAUAAUAGGAAUUAGUAGAGUAGAAGGGAUUGAGGUUU [SSFMNB.W]
3. AAAGUUGAUGAGUUGGGUAUGUGUUCCGAAGGAGCGAGAAUUAUCUCAGGUAGGUCGCGGAACAUGAGUGAUGUUCAUGUAUAAA [KL-XArg-A7 #analogue]
4. GGGAGUAGUGCGGCCGCCACUGAGAAAGAAGAAGAUUGUAGUGAUGUUAUGGAGGAAAGGAAGAACAGGACCGGGCAUUAGAUUU [SSTRyptB.I]
5. CGAGAGCUCUUGUUUGGAUGUGUUUUAUGGCGAGGACCGGUACGGCCGCCACUCGGGUGAUGUUAGUGAUGUUGAUGUAGUGAUG [qzxmullin]
6. AAUAGAUCAUUAUAGUGAUAAAUGCCUGAUACCAGUGAGAGAUGGCACCCUUGGCAGCAGAGAUGAGUGAUGUUCAGACUGUAAA [theeternabot_sameState_KL_Theo_A_11]

[114, 190, 340, 684, 91.4, 91]

* * *

tested on: MS2 coat protein; assay: apparent KD of MS2 coat protein; designed switch direction (-1 OFF switch, 1 ON switch): 1; higher = weaker reporter binding; details: input ligand: none
quantity measured: apparent KD of MS2 coat protein (nM)
Give bare numbers, in nM.

GAUCGUUUGAUAGGAUAUCGCUAUACAUGAGGAUCACCCAUGUUUACCACGCUGGUUUUUCAUACCGAGAAGGAUUCUGAUGAC [salish99_SSNG02_r04_007] (Eterna round: R96, puzzle: Same State NG 2) | 26.6

Look up apparent KD of MS2 coat protein for the entries below, preserving their order.
1. UAUCCAUAGAUAGGAUAUCAGUAUACAUGAGGAUCACCCAUGUUAUAUUUGGUUUUAAGUUAGUCUGAGAAGGAUCUUGAUGAA [SameState NG2 #3] (Eterna round: R96, puzzle: Same State NG 2)
2. UCGGGCGUACUUGCUGACAUGAGGAUCACCCAUGUCCUUGGACAGGAUAUGGUUCCGUUUCGGUUCCAGAAGGUCCUGGCUGCU [salish99_SSNG3_r04_320] (Eterna round: R96, puzzle: Same State NG 3)
3. GGUAGGUUACUACCAAACAUGAGGAUCACCCAUGUAAGUGGGAAGGAUAUGGUACCUUUUAGGUACCAGAAGGUCCAUAUAGUU [JL Fiskers NG3ss - 2 mod 9] (Eterna round: R96, puzzle: Same State NG 3)

1. 15.6
2. 40.9
3. 501

Look up apparent KD of MS2 coat protein for the entries below, preserving their order.
1. UUGUUUCGUCAUUAACAUGAGGAUCACCCAUGUAUUGACCCAGAGGAUAUGCAUGUUUGAUUGUAGCAGAAGGCUGAUUGUUGU [JR_SSNG3_Sub032] (Eterna round: R96, puzzle: Same State NG 3)
2. GGCGCCGGCGCAGGAUAUAAUAGCACCAACAAAUUAGAAGGGUGUCUGACUUAAACAUGAGGAUCACCCAUGUGCGCCACAAAA [Eternabot solution 2] (Eterna round: R96, puzzle: Same State NG 1)
3. GUAGCAUACCGAGGAUAUUCAUAAUACAUGAGGAUCACCCAUGUAAGGCCACAUUAGUGGCCUUGGGAGAAGGCGGAAUGCUAC [Xeonanis - 20 Mod43] (Eterna round: R96, puzzle: Same State NG 2)

26.3
311
44

Look up apparent KD of MS2 coat protein for the entries below, preserving their order.
1. UUAAUGAUGUAAGGAUAUACAUGAGGAUUUCUCGUAGAAGGUACAGGACAUGAGGAUCACCCAUGUGUCGCUCCGUAGAGCGUA [JL SSNG1 1.08] (Eterna round: R96, puzzle: Same State NG 1)
2. CCAACAUACAAUUUAAGAUCACAUGAGGAUCACCCAUGUAUGCAGGAUAUCAGCUCGAUUAGAGCUGAGAAGGGCAAUUUAAUU [SSNG3/1-A2] (Eterna round: R96, puzzle: Same State NG 3)

1: 525; 2: 216

* * *

Record form. Attribute: apparent KD of MS2 coat protein. Fill in for each entry.
tested on: MS2 coat protein; experiment: apparent KD of MS2 coat protein; higher = weaker reporter binding; settings: Eterna round: R107; input ligand: tryptophan 2.4 mM
One number for each entry, in µM.

Examples from the recorded data:
CUGCCAUGCAGGGAUACCAGUGCGUUCAGAACAUGAGGAUCACCCAUGUCGUCUGCCGAUCACCCUUGGCAGCUCUGCAUGGCAG [#05 Same State - Theophylline B] | 0.00991
GAUGAACUAUUUGAUACCAGACUACAUGAGGAUCACCCAUGUGAGUUUCGUCCUCUGCCAGUCCCUUGGCAGCAAAUAGUUUAUC [XTheo B #8] | 0.0143
AGUUGCGUUGGAAGGAGCGGCAUGUGUGGGCCUCCUUACAAUACAUGAGGAUCACCCAUGUGCCAGGUAGGUCGCCAACACAGGU [Tiedmaqu] | 0.0548
AAAAUCCUACCUGAGGAUCACCCGGGUGAAGGAGCGCCCGAAAGGGCAGGUAGGUCGCACCUGAGGAUCACCCUGGUAAACCUAA [ArgEX 23 #DoubleMS2 #OpenEnded] | 0.154
GCACUACAUGAGGAUCACCCAUGUGCAGAUACCAGAGGUGUAUGCCUCCCUUGGCAGCUGAGUAGCUCUGGAGGCCUAUUGGUUU [Same State Theophylline A GF15] | 0.0168

Look up apparent KD of MS2 coat protein for the entries below, preserving their order.
1. GGCGUCGGGCGAAGGAGCGUGAAGACAUGAGGAUCACCCAUGUAGAGGCCCGAACAGGGUUCGCAGGUAGGUCGCGCGCGGUGCC [#1 Same State - Arginine B Attempt #6 (HarryS)]
2. UACAUACAUGAGGAUCACCCAUGUUGCGAUACCAGCGAAAGAGACCGCCCUUGGCAGCGCUCAUUUAGUUCCAUUCUUGAUCGAA [theeternabot_sameState_MS2_Theo_A_4]
3. AGUGUAUCCAUCGAUACCAGCCACAACGUAACAUACACAUGAGGAUCACCCAUGUUGUGUGGCCCUUGGCAGCGGUGCCUGUGUA [Same State - Theophylline B Attempt #1 (HarryS)]
4. UGGGUACAUGAGGAUCACCCAUGUACUGAAGGAGCGGGACGAAUCUCAGGUAGGUCGCAGACAUGAGGAUCACCCAUGUAGUGGA [Exclusion Arginine A GF 15]
5. ACAUGAAGAUUAAUCGUGGGCAUACUCGAUACCAGUAUUUUAACCUACCCUUGGCAGCGACAUGAGGAUCACCCAUGUGAGAUGA [XTheo A #8]

1: 0.0156; 2: 0.0147; 3: 0.0139; 4: 0.0146; 5: 0.0228

Report value: apparent KD of MS2 coat protein, system: MS2 coat protein, sequence: AAUAAUAUGAGGAUCACCCAUAUAAAAGAUACCAGAGUGAUGAUCCUCCCUUGGCAGCUUAACGCUGAUUGAUUACAAUCAGCGA
0.0255

Numbers sourced from the supplement of paper PMC9170038.
